Where a name gives a salt, the structure may show the parent alone.
Let's go through some Ki measurements on human norepinephrine transporter (hNET) (Homo sapiens, UniProt P23975) together.
Sequence (P23975 whole entry): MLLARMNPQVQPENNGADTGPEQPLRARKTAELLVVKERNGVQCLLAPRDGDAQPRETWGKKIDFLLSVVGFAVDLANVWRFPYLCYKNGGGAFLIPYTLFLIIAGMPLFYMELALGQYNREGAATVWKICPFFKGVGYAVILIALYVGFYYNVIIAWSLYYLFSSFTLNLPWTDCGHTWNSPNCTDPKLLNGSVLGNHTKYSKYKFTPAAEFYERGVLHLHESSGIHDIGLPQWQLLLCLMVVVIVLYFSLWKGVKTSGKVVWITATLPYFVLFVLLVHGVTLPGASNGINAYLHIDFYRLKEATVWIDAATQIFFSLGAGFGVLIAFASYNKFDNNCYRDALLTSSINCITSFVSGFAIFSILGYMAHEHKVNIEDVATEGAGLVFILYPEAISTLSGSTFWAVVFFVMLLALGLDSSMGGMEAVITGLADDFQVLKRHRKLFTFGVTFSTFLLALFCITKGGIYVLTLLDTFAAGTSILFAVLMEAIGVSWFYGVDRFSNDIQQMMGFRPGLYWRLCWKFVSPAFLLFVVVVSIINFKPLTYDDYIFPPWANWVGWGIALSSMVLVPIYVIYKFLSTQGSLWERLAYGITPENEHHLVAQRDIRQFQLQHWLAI
Report the value in nM with no unit label.

# input Which Ki reading was recorded for the compound Fc1cccc(-n2nc(OCC3CCCNC3)c3ccccc32)c1 (racemic) [Example 66, hydrochloride] ?
# output 16.9

# input Which Ki value is on record for Fc1ccc(-n2nc(OC[C@@H]3CNCCO3)c3cc(F)ccc32)c(F)c1.O=C(O)/C=C\C(=O)O [Example 48, maleate] ?
# output 10.2

# input Data request, read-out Ki, for c1ccc(-n2nc(OCC3CCCNC3)c3ccccc32)cc1 (racemic) [Example 16, hydrochloride]
# output 21.5

# input Data request, read-out Ki, for Fc1ccc(-n2nc(OCC3CCCNC3)c3ccccc32)cc1 (racemic) [Example 67, hydrochloride]
# output 19.7

# input What Ki value was documented for this compound, Fc1ccccc1-n1nc(OC[C@@H]2CCNC2)c2ccccc21 [Example 11, hydrochloride] ?
# output 14

# input Using the record for Fc1ccc(-n2nc(OC[C@@H]3CCNC3)c3ccccc32)c(F)c1 [Example 9, hydrochloride] , report its Ki.
# output 5.63

# input # Ki lookup, item Fc1ccccc1-n1nc(O[C@@H]2CCCN2)c2ccccc21 [Example 13, maleate]
# output 131

# input // lookup Ki for Fc1ccc(F)c(-n2nc(OC[C@@H]3CNCCO3)c3ccccc32)c1 [Example 28, maleate]
# output 5.1

# input Ki lookup needed for Clc1ccc2c(OC3CCNCC3)nn(-c3ccccc3)c2c1 [Example 64, hydrochloride] , thanks.
# output 512

# input Entry under review: c1ccc(-n2nc(OC[C@H]3CCCNC3)c3ccccc32)nc1 [Example 44, maleate] . Reported Ki?
# output 100

# input Which Ki is listed for Cl.Fc1ccccc1-n1nc(OC[C@H]2CCNC2)c2ccccc21 [Example 7, hydrochloride] ?
# output 5.3

# input Name the recorded Ki for c1ccc(-n2nc(OCC3CCNCC3)c3ccccc32)cc1 (racemic) [Example 17, hydrochloride] .
# output 151

# input I am curious: what Ki value has been reported for Fc1ccc(F)c(-n2nc(OC[C@@H]3CCNC3)c3cc(F)ccc32)c1 [Example 40, hydrochloride] ?
# output 5.02

# input Fill in: Ki of c1ccc(-n2nc(OC3CCNCC3)c3ccccc32)cc1 [Example 20, hydrochloride] is ___
# output 20.2

# input Param item = Fc1ccc2c(c1)c(OC[C@H]1CCCNC1)nn2-c1ccccc1F [Example 45, maleate] ; retrieve measured Ki.
# output 3.2

# input Consider the compound Fc1cccc2c1c(OC1CCNCC1)nn2-c1ccccc1 [Example 103, hydrochloride] and give its measured Ki.
# output 34.1
